# assay.target: human CB2 receptor (Homo sapiens, UniProt P34972)
# Sequence (P34972 whole entry): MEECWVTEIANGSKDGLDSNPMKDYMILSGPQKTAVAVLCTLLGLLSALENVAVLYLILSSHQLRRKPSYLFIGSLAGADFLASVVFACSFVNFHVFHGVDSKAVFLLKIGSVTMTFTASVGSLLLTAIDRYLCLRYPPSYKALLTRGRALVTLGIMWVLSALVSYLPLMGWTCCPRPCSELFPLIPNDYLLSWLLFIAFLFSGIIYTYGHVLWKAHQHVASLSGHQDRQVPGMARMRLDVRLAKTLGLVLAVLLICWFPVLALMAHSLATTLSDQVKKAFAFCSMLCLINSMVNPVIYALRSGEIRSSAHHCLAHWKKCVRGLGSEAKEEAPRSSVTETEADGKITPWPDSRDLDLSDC
# test.description: Binding assay, cannabinoid CB2 receptor ([3H]-CP-55,940 displacement)
# condition.context: Cannabinoid CB2 Receptor Binding IC50, human CB2 receptor, SK-N-MC cell membranes, radioligand CP-55,940 0.2 nM
pIC50: −log10 of the molar value.
Would you please tag the item label 1 when its pIC50 is 7 or above, and label 0 when it is below?

{"columns": ["compound", "category"],
 "data": [
  ["CCC(NC(=O)c1nn(C2CCCCC2)c2c1CCCC2)C1CCCCC1 (stereo not shown)", "label 1"],
  ["O=C(NN1CCOCC1)c1nn(-c2ccc(Cl)cc2Cl)c2c1CCC/C2=C\\c1ccc(Cl)cc1", "label 0"],
  ["CCOC(=O)C1CCc2c(c(C(=O)NC(C)c3ccccc3)nn2Cc2ccccc2)C1 (stereo not shown)", "label 0"],
  ["O=C(NC1C2CC3CC(C2)CC1C3)c1nn(C2CCCCC2)c2c1CC(NC(=O)N1CCOCC1)CC2 (stereo not shown)", "label 0"],
  ["CC12CCC(C1)C(C)(C)[C@H]2NC(=O)c1nn(-c2ccc(F)cc2)c2c1CCCC2 (stereo partly shown)", "label 1"]
]}

Please tell me: is the compound COc1ccccc1CCNC(=O)c1nn(C2CCCCC2)c2c1CCCC2 at or over 7 in terms of pIC50? label 0

Quick check, pIC50 >= 7? Cc1ccc(-n2nc(C(=O)NC3C4(C)CCC(C4)C3(C)C)c3c2CCCC3)cc1 (stereo not shown) label 1

Reference for the values: patent US7452997B2
